Form field: Dmax (one value per entry).
# testedTarget: HiBit tagged KAT6A (Homo sapiens, UniProt Q92794)
# Construct: host or cells: HeLa
# Sequence (Q92794 whole entry): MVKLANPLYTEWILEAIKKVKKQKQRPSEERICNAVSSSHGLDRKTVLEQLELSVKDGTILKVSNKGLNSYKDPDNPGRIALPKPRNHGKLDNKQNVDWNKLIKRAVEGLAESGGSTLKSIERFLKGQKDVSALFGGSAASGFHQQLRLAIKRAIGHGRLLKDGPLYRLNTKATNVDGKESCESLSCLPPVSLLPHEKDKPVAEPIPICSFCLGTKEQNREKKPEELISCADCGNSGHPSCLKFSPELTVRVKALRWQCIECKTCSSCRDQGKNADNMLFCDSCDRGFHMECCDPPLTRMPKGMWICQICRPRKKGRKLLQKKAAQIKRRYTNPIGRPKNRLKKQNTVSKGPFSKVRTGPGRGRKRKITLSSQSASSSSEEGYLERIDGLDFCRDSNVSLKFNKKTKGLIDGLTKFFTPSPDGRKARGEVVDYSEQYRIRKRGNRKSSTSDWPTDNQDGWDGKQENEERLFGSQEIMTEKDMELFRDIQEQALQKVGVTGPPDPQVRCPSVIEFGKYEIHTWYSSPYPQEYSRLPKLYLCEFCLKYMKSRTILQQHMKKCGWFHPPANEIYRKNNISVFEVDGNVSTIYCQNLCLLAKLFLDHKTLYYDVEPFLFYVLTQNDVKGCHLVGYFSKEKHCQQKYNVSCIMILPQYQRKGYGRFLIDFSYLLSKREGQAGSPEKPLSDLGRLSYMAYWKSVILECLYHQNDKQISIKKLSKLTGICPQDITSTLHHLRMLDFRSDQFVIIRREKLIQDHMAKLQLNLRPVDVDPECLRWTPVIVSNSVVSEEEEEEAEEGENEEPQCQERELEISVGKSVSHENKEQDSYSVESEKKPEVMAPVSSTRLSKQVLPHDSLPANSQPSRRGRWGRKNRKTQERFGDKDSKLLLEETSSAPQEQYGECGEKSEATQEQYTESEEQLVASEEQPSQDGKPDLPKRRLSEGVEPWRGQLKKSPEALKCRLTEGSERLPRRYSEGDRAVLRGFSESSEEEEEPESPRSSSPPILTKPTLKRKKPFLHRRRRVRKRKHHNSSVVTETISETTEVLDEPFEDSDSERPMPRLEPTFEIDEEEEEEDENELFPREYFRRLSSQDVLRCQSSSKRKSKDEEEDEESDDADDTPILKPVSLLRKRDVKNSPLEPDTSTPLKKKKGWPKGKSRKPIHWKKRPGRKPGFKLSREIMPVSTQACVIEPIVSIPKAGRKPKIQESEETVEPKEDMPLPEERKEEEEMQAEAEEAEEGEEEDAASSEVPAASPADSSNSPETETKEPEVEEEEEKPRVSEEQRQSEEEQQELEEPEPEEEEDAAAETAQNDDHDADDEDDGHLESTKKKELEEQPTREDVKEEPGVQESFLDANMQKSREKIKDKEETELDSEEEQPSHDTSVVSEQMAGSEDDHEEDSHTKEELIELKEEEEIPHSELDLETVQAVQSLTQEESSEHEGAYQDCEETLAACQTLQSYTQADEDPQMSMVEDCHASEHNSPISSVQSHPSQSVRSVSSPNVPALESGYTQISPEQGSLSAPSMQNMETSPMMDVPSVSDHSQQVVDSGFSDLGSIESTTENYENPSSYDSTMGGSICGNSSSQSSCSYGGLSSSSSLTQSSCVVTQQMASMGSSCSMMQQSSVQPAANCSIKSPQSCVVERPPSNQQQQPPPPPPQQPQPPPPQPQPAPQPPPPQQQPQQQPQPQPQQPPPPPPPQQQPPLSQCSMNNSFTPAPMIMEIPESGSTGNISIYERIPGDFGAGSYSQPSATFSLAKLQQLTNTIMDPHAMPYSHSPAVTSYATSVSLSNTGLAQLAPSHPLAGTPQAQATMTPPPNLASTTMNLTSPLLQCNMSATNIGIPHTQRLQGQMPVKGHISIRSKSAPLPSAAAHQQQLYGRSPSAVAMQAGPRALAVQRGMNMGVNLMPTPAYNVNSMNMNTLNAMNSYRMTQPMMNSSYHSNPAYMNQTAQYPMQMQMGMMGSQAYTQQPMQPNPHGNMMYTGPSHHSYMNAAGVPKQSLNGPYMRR
# assayInfo: HiBit KAT6A Degradation Assessment
# Assay type: cell-based
# statedConditions: HeLa cells with HiBit tagged KAT6A, 18 h of treatment, 9-point serial dilution
readout: Dmax

# compound, reportedValue
records = [
    ("COc1cc(Cn2cccn2)cc2onc(NS(=O)(=O)c3cccc(N4CCN(CC5CCN(c6ccc7c(c6)C(=O)N(C6CCC(=O)NC6=O)C7=O)C5)CC4)c3)c12 (centres unmarked)", "50 to 75%"),
    ("COc1cc(Cn2cccn2)cc2onc(NS(=O)(=O)c3cccc(N4CCN(CC5CN(c6ccc7c(c6)C(=O)N(C6CCC(=O)NC6=O)C7=O)C5)CC4)c3)c12 (centres unmarked)", "50 to 75%"),
    ("COc1cc(Cn2cccn2)cc2onc(NS(=O)(=O)c3cccc(N4CCC5(CC4)CN(C[C@@H]4CCN(c6ccc7c(c6)C(=O)N(C6CCC(=O)NC6=O)C7=O)C4)C5)c3)c12 (some centres unmarked)", "50 to 75%"),
    ("COc1cc(Cn2cccn2)cc2onc(NS(=O)(=O)c3cccc(NC4CCN(C[C@@H]5CCN(c6ccc7c(c6)CN([C@H]6CCC(=O)NC6=O)C7=O)C5)CC4)c3)c12", "50 to 75%"),
    ("COc1cc(Cn2cccn2)cc2onc(NS(=O)(=O)c3cccc(N4CCC(NC[C@@H]5CCN(c6ccc7c(c6)CN([C@H]6CCC(=O)NC6=O)C7=O)C5)CC4)c3)c12", "> 75%"),
]
